study-system: human JNK3 enzyme (Homo sapiens, UniProt P53779)
Sequence (P53779 whole entry): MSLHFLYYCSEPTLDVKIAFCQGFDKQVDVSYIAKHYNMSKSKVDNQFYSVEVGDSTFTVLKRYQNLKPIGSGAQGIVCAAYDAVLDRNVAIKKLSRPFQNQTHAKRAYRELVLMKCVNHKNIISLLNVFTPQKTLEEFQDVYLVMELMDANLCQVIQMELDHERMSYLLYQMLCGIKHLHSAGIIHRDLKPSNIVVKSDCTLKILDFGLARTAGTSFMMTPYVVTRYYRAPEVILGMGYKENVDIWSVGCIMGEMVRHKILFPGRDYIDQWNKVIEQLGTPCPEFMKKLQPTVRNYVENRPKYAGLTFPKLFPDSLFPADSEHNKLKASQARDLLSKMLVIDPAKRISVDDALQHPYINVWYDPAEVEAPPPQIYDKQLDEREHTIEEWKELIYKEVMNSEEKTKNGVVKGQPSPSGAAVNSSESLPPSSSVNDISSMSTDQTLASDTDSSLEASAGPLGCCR
assay: Measurement of JNK3 enzymatic activity (33P-ATP filter-binding method)
Type: biochemical
test-conditions: Table 1; ATP 10 μM, ATF2 3 μM
Procedure: First, a substrate was added to a prepared base reaction buffer solution (20 mM Hepes (pH 7.5), 10 mM MgCl2, 1 mM EGTA, 0.02% Brij35, 0.02 mg/ml BSA, 0.1 mM Na3VO4, 2 mM DTT, 1% DMSO), a human JNK3 enzyme was added into the prepared substrate solution, and the resulting solution was mixed. […] Subsequently, ^33P-ATP was added to the mixed reaction solution to initiate the reaction, followed by incubation at room temperature for 2 hours, and enzymatic activity was detected by a filter-binding method. […]
pIC50: −log10 of the molar value.
measurement-kind: pIC50

Sample answers from the record:
molecule="O=C(C1CC1)N1CCC[C@H](Nc2nccc(-n3c(-c4ccc5ccccc5n4)nc4cc(O)ccc43)n2)C1 [Compound 13b]" measurement_kind=pIC50 assay_result="7.00 to 7.52"
molecule="O=C(C1CC1)N1CCC[C@H](Nc2nccc(-n3c(-c4ccc5c(c4)OCO5)nc4cc(O)ccc43)n2)C1 [Compound 13g]" measurement_kind=pIC50 assay_result="7.00 to 7.52"

Here is another molecule to look at.
Assign pIC50 to the following record: Oc1ccc2c(c1)nc(-c1ccc3c(c1)OCCO3)n2-c1ccnc(NC2CCCCC2)n1 [Compound 10c]
< 7.00

---

Measured pIC50 by item
study-system: UniProtKB P53779
assay: Measurement of JNK3 enzymatic activity (33P-ATP filter-binding method)
Assay type: biochemical
test-conditions: Table 2; ATP 10 μM, ATF2 3 μM
pIC50: −log10 of the molar value.

Consider the worked cases shown below.
compound="Oc1ccc2nc(-c3ccc4occc4c3)n(-c3ccnc(NC4CCOCC4)n3)c2c1 [Compound 22d]" measurement_kind=pIC50 assay_result="7.00 to 7.52"
compound="Oc1ccc2nc(-c3ccc4ccccc4c3)n(-c3ccnc(NC4CCCCC4)n3)c2c1 [Compound 23a]" measurement_kind=pIC50 assay_result="< 7.00"
compound="Oc1ccc2nc(-c3ccc4ccccc4c3)n(-c3ccnc(NC4CCOCC4)n3)c2c1 [Compound 22a]" measurement_kind=pIC50 assay_result="7.00 to 7.52"

Output reported pIC50 of the compound O=C(C1CC1)N1CCC[C@H](Nc2nccc(-n3c(-c4ccc5occc5c4)nc4ccc(O)cc43)n2)C1 [Compound 26d] on UniProtKB P53779.
> 7.52

Look up and report measured pIC50 (UniProtKB P53779) for the following compound: Oc1c2ccccc2c2c3c(cccc13)N=N2 [SP600125, reference compound]
7.00 to 7.52

// fetch pIC50; item: Oc1ccc2nc(-c3ccc4c(c3)OCCO4)n(-c3ccnc(NC4CCOCC4)n3)c2c1 [Compound 22c] ; system: UniProtKB P53779
7.00 to 7.52

For UniProtKB P53779, give the measured pIC50 of the entry Oc1ccc2nc(-c3ccc4ccccc4n3)n(-c3ccnc(NC4CCOCC4)n3)c2c1 [Compound 22b]
7.00 to 7.52

---

Here, each record is paired with measured pIC50 data.
study-system: human JNK3 enzyme (Homo sapiens, UniProt P53779)
assay: Measurement of JNK3 enzymatic activity (33P-ATP filter-binding method)
Assay type: biochemical
test-conditions: Table 3; ATP 10 μM, ATF2 3 μM
pIC50: −log10 of the molar value.

compound="Oc1c2ccccc2c2c3c(cccc13)N=N2 [SP600125, reference compound]" assay_result="7.00 to 7.52"

Given O=C(C1CC1)N1CCC[C@@H](Nc2nccc(-n3c(-c4ccc(Cl)c(Cl)c4)nc4cc(O)c(O)cc43)n2)C1 [Compound 35b] , respond with its pIC50.
> 7.52

Look up and state reported pIC50 for O=C(C1CC1)N1CCC[C@@H](Nc2nccc(-n3c(-c4ccc(F)c(C(F)(F)F)c4)nc4cc(O)c(O)cc43)n2)C1 [Compound 35c]
> 7.52

Give pIC50 for O=C(C1CC1)N1CCC[C@@H](Nc2nccc(-n3c(-c4ccc5ccccc5c4)nc4cc(O)c(O)cc43)n2)C1 [Compound 35a]
> 7.52

Specify pIC50 for O=C(C1CC1)N1CCC[C@@H](Nc2nccc(-n3c(-c4ccc5occc5c4)nc4cc(O)c(O)cc43)n2)C1 [Compound 35e] and stop.
> 7.52

Consider the compound O=C(C1CC1)N1CCC[C@@H](Nc2nccc(-n3c(-c4ccc5c(c4)OCCO5)nc4cc(O)c(O)cc43)n2)C1 [Compound 35d] and give its recorded pIC50.
> 7.52

---

Quick reference for IC50 among some molecules
study-system: human JNK3 enzyme (Homo sapiens)
assay: Measurement of JNK3 enzymatic activity (33P-ATP filter-binding method)
Format: biochemical
test-conditions: Table 1; ATP 10 μM, ATF2 3 μM

Solved cases below.
molecule="Oc1ccc2c(c1)nc(-c1ccc(F)c(C(F)(F)F)c1)n2-c1ccnc(NC2CCOCC2)n1 [Compound 9f]" measurement_kind=IC50 assay_result="30 to 100 nM"
molecule="Oc1ccc2c(c1)nc(-c1ccc3occc3c1)n2-c1ccnc(NC2CCOCC2)n1 [Compound 9d]" measurement_kind=IC50 assay_result="> 100 nM"
molecule="Oc1c2ccccc2c2c3c(cccc13)N=N2 [SP600125, reference compound]" measurement_kind=IC50 assay_result="30 to 100 nM"

Using known records, supply IC50 for Oc1ccc2c(c1)nc(-c1ccc(Cl)c(Cl)c1)n2-c1ccnc(NC2CCOCC2)n1 [Compound 9e]
30 to 100 nM

Quickly give me recorded IC50 for O=C(C1CC1)N1CCC[C@H](Nc2nccc(-n3c(-c4ccc(Cl)c(Cl)c4)nc4cc(O)ccc43)n2)C1 [Compound 13e]
< 30 nM

Tell me measured IC50 for Oc1ccc2c(c1)nc(-c1ccc(F)c(C(F)(F)F)c1)n2-c1ccnc(NC2CCCCC2)n1 [Compound 10f] please.
> 100 nM

Look up IC50 of O=C(C1CC1)N1CCC[C@H](Nc2nccc(-n3c(-c4ccc5ccccc5c4)nc4cc(O)ccc43)n2)C1 [Compound 13a] and report it.
30 to 100 nM

Identify measured IC50 associated with Oc1ccc2c(c1)nc(-c1ccc3ccccc3c1)n2-c1ccnc(NC2CCOCC2)n1 [Compound 9a]
> 100 nM

---

Test system: P-gp (MDR1)
assay: Evaluation of migration of blood-brain barrier (BBB migration evaluation system)
Format: in vitro ADME
test-conditions: human; Caco-2-MDR1 cells, basolateral to apical; read-out: B to A (permeability coefficient Papp)
measurement-kind: Papp B→A (×10⁻⁶ cm/s)

compound="O=C(C1CC1)N1CCC[C@@H](Nc2nccc(-n3c(-c4ccc5c(c4)OCCO5)nc4cc(O)c(O)cc43)n2)C1 [Compound 35d]" assay_result=19.6
compound="O=C(C1CC1)N1CCC[C@H](Nc2nccc(-n3c(-c4ccc5c(c4)OCCO5)nc4ccc(O)cc43)n2)C1 [Compound 26c]" assay_result=19.9

---

Test system: P-gp (MDR1)
assay: Evaluation of migration of blood-brain barrier (BBB migration evaluation system)
Assay type: in vitro ADME
test-conditions: human; Caco-2-MDR1 cells, apical to basolateral; read-out: A to B (permeability coefficient Papp)
measurement-kind: Papp A→B (×10⁻⁶ cm/s)

molecule="O=C(C1CC1)N1CCC[C@@H](Nc2nccc(-n3c(-c4ccc5c(c4)OCCO5)nc4cc(O)c(O)cc43)n2)C1 [Compound 35d]" measure_unit="×10⁻⁶ cm/s" assay_result=17.3
molecule="O=C(C1CC1)N1CCC[C@H](Nc2nccc(-n3c(-c4ccc5c(c4)OCCO5)nc4ccc(O)cc43)n2)C1 [Compound 26c]" measure_unit="×10⁻⁶ cm/s" assay_result=19.2

---

study-system: human JNK3 enzyme (Homo sapiens)
assay: Measurement of JNK3 enzymatic activity (33P-ATP filter-binding method)
Assay type: biochemical
test-conditions: Table 1; ATP 10 μM, ATF2 3 μM
measurement-kind: IC50

Previously resolved entries follow.
compound="O=C(C1CC1)N1CCC[C@H](Nc2nccc(-n3c(-c4ccc(F)c(C(F)(F)F)c4)nc4cc(O)ccc43)n2)C1 [Compound 13f]" study_system="human JNK3 enzyme (Homo sapiens)" measurement_kind=IC50 assay_result="30 to 100 nM"
compound="Oc1ccc2c(c1)nc(-c1ccc3occc3c1)n2-c1ccnc(NC2CCCCC2)n1 [Compound 10d]" study_system="human JNK3 enzyme (Homo sapiens)" measurement_kind=IC50 assay_result="> 100 nM"
compound="O=C(C1CC1)N1CCC[C@H](Nc2nccc(-n3c(-c4ccc5c(c4)OCCO5)nc4cc(O)ccc43)n2)C1 [Compound 13c]" study_system="human JNK3 enzyme (Homo sapiens)" measurement_kind=IC50 assay_result="30 to 100 nM"
compound="Oc1ccc2c(c1)nc(-c1ccc3ccccc3c1)n2-c1ccnc(NC2CCCCC2)n1 [Compound 10a]" study_system="human JNK3 enzyme (Homo sapiens)" measurement_kind=IC50 assay_result="> 100 nM"
compound="Oc1ccc2c(c1)nc(-c1ccc(Cl)c(Cl)c1)n2-c1ccnc(NC2CCCCC2)n1 [Compound 10e]" study_system="human JNK3 enzyme (Homo sapiens)" measurement_kind=IC50 assay_result="> 100 nM"
compound="O=C(C1CC1)N1CCC[C@H](Nc2nccc(-n3c(-c4ccc5occc5c4)nc4cc(O)ccc43)n2)C1 [Compound 13d]" study_system="human JNK3 enzyme (Homo sapiens)" measurement_kind=IC50 assay_result="< 30 nM"

We now examine a further compound.
Please report IC50 for the following compound: Oc1ccc2c(c1)nc(-c1ccc3c(c1)OCCO3)n2-c1ccnc(NC2CCOCC2)n1
> 100 nM
